These measurements were taken from ChEMBL document CHEMBL4706495.

- System: A549
- measurement_notes: Cytotoxicity against human A549 cells assessed as cell viability at 100 uM measured after 48 hrs by WST-1 assay relative to control
- Format: functional
- experimental_context: read-out: Activity
readout_kind: viability at 100 µM (%)
Hi! Could you send only the number? It should be in %, unit omitted.

In: Find viability at 100 µM (A549) for the entry COc1cccc(OC)c1OCC(O)CN1CCN(CCO)CC1 (stereo not given)
Out: 99

In: Find viability at 100 µM (A549) for the entry Cc1ccccc1OCC(O)CN1CCN(CCO)CC1 (stereo not given)
Out: 114

In: Find viability at 100 µM (A549) for the entry OCCN1CCN(CC(O)COc2ccccc2)CC1 (stereo not given)
Out: 99

In: Find viability at 100 µM (A549) for the entry OCCN1CCN(CC(O)COc2ccc3ccccc3c2)CC1 (stereo not given)
Out: 102

In: Find viability at 100 µM (A549) for the entry Cc1ccc(C(C)C)c(OCC(O)CN2CCN(CCO)CC2)c1 (stereo not given)
Out: 114

In: Find viability at 100 µM (A549) for the entry OCCN1CCN(CC(O)COc2cccc3ccccc23)CC1 (stereo not given)
Out: 107

In: Find viability at 100 µM (A549) for the entry COc1cc([N+](=O)[O-])ccc1OCC(O)CN1CCN(CCO)CC1 (stereo not given)
Out: 105

In: Find viability at 100 µM (A549) for the entry COc1ccccc1OCC(O)CN1CCN(CCO)CC1 (stereo not given)
Out: 109

In: Find viability at 100 µM (A549) for the entry Cc1ccc(OCC(O)CN2CCN(CCO)CC2)cc1 (stereo not given)
Out: 110

In: Find viability at 100 µM (A549) for the entry C=CCc1ccc(OCC(O)CN2CCN(CCO)CC2)c(OC)c1 (stereo not given)
Out: 105
